For each of the compounds below, state its growth.
System: UO-31 renal
Assay: NCI-60 one-dose screen, 48 h (100 = growth as untreated, 0 = no growth, -100 = all killed)
Conditions: 10 µM unless noted
Compounds without any hit were thinned out: in the full panel of roughly 83,000, 20% have a hit.
Entry rule: numbers only, all in %.

Query: Look up growth with UO-31 renal for this compound: O=C1/C(=C/c2ccc3c(c2)OCO3)SC(=S)N1CCc1ccc(O)cc1
Response: 58.8

Query: Try this compound next: Cc1cc(Nc2ccc(C)c(Cl)c2)n2nc(C(F)(F)F)nc2n1
Response: -43.2

Query: Another compound: CCOC(=O)c1sc2nc(-c3cccc(OC)c3)nc(N3CCOCC3)c2c1C
Response: 79.7

Query: What would you report for COc1ccc(Nc2nc(SC)nc(-c3cccc([N+](=O)[O-])c3)c2C#N)cc1 ?
Response: 17.7

Query: Please give the result for O=S(=O)(Nc1ccc(Cl)c(F)c1)c1ccc(-c2cnc(C3CC3)o2)cc1 too.
Response: 48.6

Query: Note, next up: COc1cc2c(cc1-c1c(C)noc1C)ncc1nc(C3CCCC3)n([C@H](C)COC(F)F)c12
Response: -30

Query: Here is the next compound: C(=N/Nc1ncc(-c2cc3cc(-c4ccccc4)ccc3o2)s1)/c1cccs1
Response: 84.8

Query: Again, but for Cc1nn(-c2cc(=O)[nH]c3ccc(Cl)cc23)c(N)c1C#N
Response: 70.7

Query: What do you get for COc1cc2c(cc1OC)C(Sc1ccc(SC)cc1)c1c(nc(N)c(C#N)c1N)O2 (stereo not given) ?
Response: -99.7

Query: Can you handle COc1ccc(CN2c3ccccc3Oc3ccccc32)cc1O next?
Response: 32.5
